B1: Keratin, type I cytoskeletal 18 (Homo sapiens), P05783 (parent)
chain: MSFTTRSTFSTNYRSLGSVQAPSYGARPVSSAASVYAGAGGSGSRISVSRSTSFRGGMGSGGLATGIAGGLAGMGGIQNEKETMQSLNDRLASYLDRVRSLETENRRLESKIREHLEKKGPQVRDWSHYFKIIEDLRAQIFANTVDNARIVLQIDNARLAADDFRVKYETELAMRQSVENDIHGLRKVIDDTNITRLQLETEIEALKEELLFMKKNHEEEVKGLQAQIASSGLTVEVDAPKSQDLAKIMADIRAQYDELARKNREELDKYWSQQIEESTTVVTTQSAEVGAAETTLTELRRTVQSLEIDLDSMRNLKASLENSLREVEARYALQMEQLNGILLHLESELAQTRAEGQRQAQEYEALLNIKVKLEAEIATYRRLLEDGEDFNLGDALDSSNSMQTIQKTTTRRIVDGKVVSETNDTKVLRH

- Variants of: B1
- assayConditions: with syce1_human SYCE1, Q8N0S2
- Sequence (Q8N0S2 whole entry): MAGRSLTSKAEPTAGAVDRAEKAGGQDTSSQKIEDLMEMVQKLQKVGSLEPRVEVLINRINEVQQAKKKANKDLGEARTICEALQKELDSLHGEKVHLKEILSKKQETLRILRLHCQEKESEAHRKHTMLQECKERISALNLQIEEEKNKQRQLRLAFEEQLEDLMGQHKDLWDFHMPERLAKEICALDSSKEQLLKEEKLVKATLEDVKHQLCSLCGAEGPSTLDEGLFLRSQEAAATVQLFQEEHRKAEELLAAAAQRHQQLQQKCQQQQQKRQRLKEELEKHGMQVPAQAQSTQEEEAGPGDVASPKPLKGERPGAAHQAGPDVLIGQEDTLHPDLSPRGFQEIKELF
valueKind: effect of a mutation on the interaction

| variantAnnotation | valueKind | endpointValue |
| --- | --- | --- |
| H128L | effect of a mutation on the interaction | with no effect |
| Q285R | effect of a mutation on the interaction | with no effect |
| G340R | effect of a mutation on the interaction | with no effect |

Attribution: IntAct's records for PubMed 25910212
